Data provenance: the supplement of paper PMC9694430

thermal shift delta Tm: recorded values
system: LOC_OS03G50450-cb001; assay: thermal shift delta Tm vs DMSO control; higher = stronger stabilization (binding); settings: 12.5 µM; protein concentration 2 µM;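 also: purified Escherichia coli-expressed rice kinase domain construct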
Where a name gives a salt, the structure may show the parent alone.

Molecule: N=C(N)NC(=N)NCCc1ccccc1 [Phenformin HCl]
Result unit: °C
thermal shift delta Tm: 0.26
--
Molecule: O=C(NCc1cccc(O)c1)Nc1nc(-c2ccncc2)cs1
Result unit: °C
thermal shift delta Tm: 0.51
--
Molecule: CNC(=O)c1cc(Oc2ccc(NC(=O)Nc3ccc(Cl)c(C(F)(F)F)c3)cc2)ccn1 [Sorafenib]
Result unit: °C
thermal shift delta Tm: 1.22
--
Molecule: CCCCNc1ncc(C(=O)NCc2ccc(-n3ccnc3)cc2)c(NC2CCC(O)CC2)n1 (stereo not drawn)
Result unit: °C
thermal shift delta Tm: 1.85
--
Molecule: CCCCCCCCCCCCc1ccc(S(=O)(=O)Nc2nncs2)cc1
Result unit: °C
thermal shift delta Tm: -0.07
--
Molecule: CN1CCN(c2ccc3nc(-c4c(N)c5c(F)cccc5[nH]c4=O)[nH]c3c2)CC1 [Dovitinib (TKI-258, CHIR-258)]
Result unit: °C
thermal shift delta Tm: 2.43
--
Molecule: COc1c(C)c(C(=O)c2ccc(N)c(C(=O)O)c2)n2ccccc12
Result unit: °C
thermal shift delta Tm: 0.58
--
Molecule: CC(C)CCN1c2nc(Nc3cc(F)c(O)c(F)c3)ncc2N(C)C(=O)C1C (stereo not drawn)
Result unit: °C
thermal shift delta Tm: 2.58
--
Molecule: CCOc1cc(N2CCC(O)CC2)ccc1Nc1ncc2c(n1)N(C)c1ccccc1C(=O)N2C
Result unit: °C
thermal shift delta Tm: 0.38
--
Molecule: CO[C@H]1C[C@@H]2CC[C@@H](C)[C@@](O)(O2)C(=O)C(=O)N2CCCC[C@H]2C(=O)O[C@H]([C@H](C)C[C@@H]2CC[C@@H](OC(=O)C(C)(CO)CO)[C@H](OC)C2)CC(=O)[C@H](C)/C=C(\C)[C@@H](O)[C@@H](OC)C(=O)[C@H](C)C[C@H](C)/C=C/C=C/C=C/1C
Result unit: °C
thermal shift delta Tm: 0.44
--
Molecule: c1cncc(CN2CCC(n3ncc4c(N5CCOCC5)nc(-c5ccc6[nH]ccc6c5)nc43)CC2)c1
Result unit: °C
thermal shift delta Tm: 0.14
--
Molecule: Nc1nc(N)c2nc(-c3cccc(O)c3)c(-c3cccc(O)c3)nc2n1
Result unit: °C
thermal shift delta Tm: 0.33
--
Molecule: O=c1cc(-c2ccccc2)oc2c(O)c(O)ccc12 [7,8-Dihydroxyflavone]
Result unit: °C
thermal shift delta Tm: 0.77
--
Molecule: Cc1ncc(-c2ccnc(Nc3ccc(S(C)(=O)=O)cc3)n2)n1C(C)C
Result unit: °C
thermal shift delta Tm: 0.58
--
Molecule: CC(C)=CC[C@@H](O)C1=CC(=O)c2c(O)ccc(O)c2C1=O [Shikonin]
Result unit: °C
thermal shift delta Tm: -1.22
--
Molecule: CC(C)(C)S(=O)(=O)c1ccc2nccc(Nc3n[nH]c4ccc(F)cc34)c2c1
Result unit: °C
thermal shift delta Tm: -0.21
--
Molecule: CC1=C(C(=O)Nc2cc3cn[nH]c3cc2F)C(c2ccc(C(F)(F)F)cc2)CC(=O)N1 (stereo not drawn)
Result unit: °C
thermal shift delta Tm: 0.15
--
Molecule: O=C1Cc2c([nH]c3ccc(Br)cc23)-c2ccccc2N1 [Kenpaullone]
Result unit: °C
thermal shift delta Tm: 0.9
